# measurement conditions: in n-propanol, 303.15 K
observed property: solubility (mole fraction)
Could you respond with only the numeric value?

IN: Sample CC(=O)N[C@@H](C)C(=O)O — what was its solubility (mole fraction)?
OUT: 0.133

====

# measurement conditions: in isopropanol, 293.15 K
observed property: solubility (mole fraction)

IN: Sample CC(=O)N[C@@H](C)C(=O)O — what was its solubility (mole fraction)?
OUT: 0.1

====

# measurement conditions: in isopropanol, 308.15 K
observed property: solubility (mole fraction)
Could you respond with only the numeric value?

IN: Sample CC(=O)N[C@@H](C)C(=O)O — what was its solubility (mole fraction)?
OUT: 0.148

====

# measurement conditions: in n-propyl acetate, 318.15 K
observed property: solubility (mole fraction)
Could you respond with only the numeric value?

IN: Sample CC(=O)N[C@@H](C)C(=O)O — what was its solubility (mole fraction)?
OUT: 0.00913

The values you see were collected from BigSolDB 2.1.
